- test_target: Focal adhesion kinase 1 (Homo sapiens)
- assay_details: small-molecule microarray binders of FAK, primary screen, biochemical, 635/667 nm fluorescence, BSA, DTT (AID 1130);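 note: composite of spot emission at 667 nm and signal to noise over triplicate slides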
- settings: PTK2 binding, 635 nm fluorescence, higher = more signal
Note to self: values exactly at 0.9 are Met. So composite z-score at or above 0.9 is Met, below is Not met.

Below are worked cases with known answers.
In: Evaluate C=CCC(OC(C)=O)[C@@H]1[C@@H](N(Cc2ccc(-c3ccccc3)cc2)C(=O)c2ccc(C)cc2)c2cc(OCCCO)ccc2N1C(=O)c1ccc2ccccc2c1 (stereo not given in full) : composite z-score at minimum 0.9?
Out: Not met

In: Decide: is the reported value of composite z-score for CCOC(=O)C1=CC[C@@H](c2ccc(F)cc2)N(S(=O)(=O)c2ccc(C)cc2)[C@H]1c1ccc([N+](=O)[O-])cc1 equal to or greater than 0.9?
Out: Not met

---
In: Does the compound C=CCNC(=O)[C@@H]1[C@H]2C(=O)O[C@H](c3ccccc3)[C@H](c3ccccc3)N2[C@H](c2ccccc2OCCO)[C@@]12C(=O)N(C(=O)OCCOC)c1ccc(C#CCCO)cc12 have recorded composite z-score that is 0.9 or more?
Out: Met

###

- Test system: Wnt5a (protein binding on small-molecule microarray)
- assay_details: Wnt5a binders on small-molecule microarray, primary screen, biophysical, 635/667 nm fluorescence (AID 1142);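 note: fluorescence read at 667 nm with signal to noise per printed feature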
- settings: 635 nm fluorescence, higher = more signal
Lab note: compare composite z-score against 0.04. Equal or greater, write yes (1). Smaller, write no (0).

In: composite z-score >= 0.04 for COCCCNC(=O)[C@@H]1c2ccccc2C(=O)N(C2CCCCC2)[C@H]1c1ccc(CO)cc1 ?
Out: no (0)

In: Given COc1cccc(OC)c1C(=O)O[C@H]1[C@@H]2OC(=O)[C@H](Cc3cccc(Br)c3)C/C=C/C[C@@H](Cc3cccc(Br)c3)C(=O)O[C@H]2[C@@H](OC)O[C@@H]1CO , state whether its composite z-score is at least 0.04.
Out: yes (1)

In: Determine whether this molecule has composite z-score no lower than 0.04: COc1ccccc1CN1C(=O)c2ccccc2[C@@H](C(=O)NCCCN(C)C)[C@@H]1c1ccc(CO)cc1
Out: yes (1)

In: Does the molecule COCC(=C=CC[C@@H](O)c1ccc(OCCO)cc1)C[C@@H](O)COCc1ccccc1 have recorded composite z-score that is 0.04 or more?
Out: yes (1)

In: Quick check: does CCOC(=O)C1=CC[C@@H](c2ccc(F)cc2)N(S(=O)(=O)c2ccc(C)cc2)[C@H]1c1ccc([N+](=O)[O-])cc1 have composite z-score greater than or equal to 0.04?
Out: no (0)

In: Does the molecule NCCCC[C@@H]1NC(=O)[C@H]2C[C@@H](C(=O)NCc3ccc(F)cc3)[C@@H](c3ccc(O)cc3)N2C1=O have recorded composite z-score that is 0.04 or more?
Out: no (0)

In: Check if composite z-score >= 0.04 (inclusive). Item: COC(=O)[C@H](Cc1ccc(O)cc1)N1CC2=CCCC=C[C@@H]2[C@H]1[C@H](O)Cc1ccccc1
Out: yes (1)

In: Kindly determine if composite z-score recorded for C=CCNC(=O)[C@@H]1[C@H]2C(=O)O[C@H](c3ccccc3)[C@H](c3ccccc3)N2[C@H](c2ccc(O)cc2)[C@@]12C(=O)Nc1ccc(C#CC3(O)CCCCCC3)cc12 is above or exactly 0.04.
Out: yes (1)

In: Test whether the molecule O=C1OCCC=C[C@H]2OC34C=CCN(CCN5CCOCC5)C(=O)[C@H]3N(CCCO)C(=O)[C@@H]4C12 (stereo not given in full) records composite z-score of 0.04 or higher.
Out: no (0)

In: Given CO[C@H]1O[C@H](CO)[C@@H](OC(=O)Nc2ccc(C(F)(F)F)cc2)[C@H](OC(=O)Nc2ccccc2-c2ccccc2)[C@H]1OC(=O)Nc1ccccc1-c1ccccc1 , state whether its composite z-score is at least 0.04.
Out: yes (1)

In: Form field: composite z-score at least 0.04? Entry: CCCCN1CC=CC23O[C@@H]4C=CCOC(=O)[C@@H]4[C@H]2C(=O)N(CCO)[C@@H]3C1=O (stereo not given in full)
Out: no (0)

In: Quick check, composite z-score >= 0.04? COc1ccccc1CN1C(=O)c2ccccc2[C@](Cc2ccccc2I)(C(=O)NCCCN(C)C)[C@@H]1c1ccc(CO)cc1
Out: yes (1)

In: Decide: composite z-score of CN(C)CCCNC(=O)[C@@H]1c2ccccc2C(=O)N(C2Cc3ccccc3C2)[C@H]1c1ccc(CO)cc1 >= 0.04?
Out: no (0)

In: Does composite z-score meet or surpass 0.04 for CCCCC(O)C1C=CC2C(=O)NC(=O)C2N1Nc1ccccn1 (stereo not given) ?
Out: no (0)

In: Has COc1ccc(CCNC(=O)[C@@]2(Sc3ccc(C)cc3)CC(=O)N(C(C)C)[C@@H]2c2ccc(CO)cc2)cc1 a recorded composite z-score greater than or equal to 0.04?
Out: no (0)

In: Determine whether measured composite z-score meets or exceeds 0.04 for COCCOC(=O)N1C(=O)[C@@]2(c3cc(C#CC4(O)CCCCCC4)ccc31)[C@H](C(=O)NC[C@H](O)c1ccccc1)[C@H]1C(=O)O[C@H](c3ccccc3)[C@H](c3ccccc3)N1[C@@H]2c1ccc(O)cc1
Out: yes (1)

In: Is it the case that NCCCC[C@@H]1NC(=O)[C@H]2C[C@@H](C(=O)NCc3ccc(F)cc3)[C@@H](c3cccc(OCCO)c3)N2C1=O has composite z-score reaching or exceeding 0.04?
Out: yes (1)

In: Check this molecule for composite z-score at or above 0.04: CC(C)C[C@@H]1NC(=O)[C@H]2C[C@@H](C(=O)NCCCCCCNC(=O)CS)[C@@H](c3ccc(O)cc3)N2C1=O
Out: yes (1)

In: composite z-score >= 0.04 for CN(C)C(=O)[C@@]1(CCS(=O)(=O)c2ccccc2)N=C(c2ccc(OCCCO)cc2)O[C@H]1c1ccccc1N=[N+]=[N-] ?
Out: yes (1)

In: Given the entry C=CCNC(=O)[C@@H]1[C@H]2C(=O)O[C@H](c3ccccc3)[C@H](c3ccccc3)N2[C@H](c2ccccc2OCCO)[C@@]12C(=O)N(C(=O)OCCOC)c1ccc(C#CCCO)cc12 , answer whether its composite z-score meets or surpasses 0.04.
Out: yes (1)
